Test system: HEK293 cells
CONDITIONS: human

[
  {
    "STRUCTURE_SMILES": "O=C1C[C@@H](c2ccc(O)cc2)Oc2cc(O)cc(O)c21",
    "MTT pRK control": "10–50 ↑"
  },
  {
    "STRUCTURE_SMILES": "O=c1c(O)c(-c2ccc(O)c(O)c2)oc2cc(O)cc(O)c12",
    "MTT pRK control": "10–50 ↑"
  },
  {
    "STRUCTURE_SMILES": "O=c1cc(-c2ccc(O)cc2)oc2cc(O)cc(O)c12",
    "MTT pRK control": "5–10↑ 20–50↓"
  },
  {
    "STRUCTURE_SMILES": "CCCCCCC[C@H](O)CC(=O)CCc1ccc(O)c(OC)c1",
    "MTT pRK control": "50 ↓"
  }
]
